Reference for the values: patent US12187723B2

IC50 overview
targetEntity: UniProt:Q9NR96
experimentSummary: TLR9 inhibition reporter assay (HEK-Blue SEAP)
experimentalParameters: HEK-Blue cells overexpressing human TLR9, ODN2006 5 nM, 22 hour incubation
From the text: TLR7/8/9 Inhibition Reporter Assays HEK-Blue™-cells (Invivogen) overexpressing human TLR7, TLR8 or TLR9 receptors were used for screening inhibitors of these receptors using an inducible SEAP (secreted embryonic alkaline phosphatase) reporter gene under the control of the IFN-β minimal promoter fused to five NF-κB and AP-1-binding sites. […]
metricName: IC50 (µM)

CNC(=O)CN1CCC(n2c(=O)[nH]c3cc(-c4cc(C)c5ncnn5c4)c(C)cc32)CC1 [Example 88]; 45.3
COc1cc(-c2cc3[nH]c(=O)n([C@H]4CC[C@H](NC(C)C)CC4)c3cc2C(C)C)cn2ncnc12 [Example 203]; 30.9
Cc1c(-c2cc3[nH]c(=O)n(C4CCC(N5CCC(F)(F)CC5)CC4)c3cc2C(C)C)cn2ncnc2c1C (single isomer, unassigned) [Example 275]; 19.9
Cc1c(-c2cc3[nH]c(=O)n([C@H]4CC[C@@H](NC(C)C)CC4)c3cc2C(C)C)cn2ncnc2c1C [Example 186]; 5.99
COc1c(C)c(-c2cc3[nH]c(=O)n(C4CCC(NCC5(S(C)(=O)=O)CC5)CC4)c3cc2C(C)C)cn2ncnc12 (single isomer, unassigned) [Example 260]; 6.36

====

targetEntity: UniProt Q9NYK1
Sequence (Q9NYK1 27-1049): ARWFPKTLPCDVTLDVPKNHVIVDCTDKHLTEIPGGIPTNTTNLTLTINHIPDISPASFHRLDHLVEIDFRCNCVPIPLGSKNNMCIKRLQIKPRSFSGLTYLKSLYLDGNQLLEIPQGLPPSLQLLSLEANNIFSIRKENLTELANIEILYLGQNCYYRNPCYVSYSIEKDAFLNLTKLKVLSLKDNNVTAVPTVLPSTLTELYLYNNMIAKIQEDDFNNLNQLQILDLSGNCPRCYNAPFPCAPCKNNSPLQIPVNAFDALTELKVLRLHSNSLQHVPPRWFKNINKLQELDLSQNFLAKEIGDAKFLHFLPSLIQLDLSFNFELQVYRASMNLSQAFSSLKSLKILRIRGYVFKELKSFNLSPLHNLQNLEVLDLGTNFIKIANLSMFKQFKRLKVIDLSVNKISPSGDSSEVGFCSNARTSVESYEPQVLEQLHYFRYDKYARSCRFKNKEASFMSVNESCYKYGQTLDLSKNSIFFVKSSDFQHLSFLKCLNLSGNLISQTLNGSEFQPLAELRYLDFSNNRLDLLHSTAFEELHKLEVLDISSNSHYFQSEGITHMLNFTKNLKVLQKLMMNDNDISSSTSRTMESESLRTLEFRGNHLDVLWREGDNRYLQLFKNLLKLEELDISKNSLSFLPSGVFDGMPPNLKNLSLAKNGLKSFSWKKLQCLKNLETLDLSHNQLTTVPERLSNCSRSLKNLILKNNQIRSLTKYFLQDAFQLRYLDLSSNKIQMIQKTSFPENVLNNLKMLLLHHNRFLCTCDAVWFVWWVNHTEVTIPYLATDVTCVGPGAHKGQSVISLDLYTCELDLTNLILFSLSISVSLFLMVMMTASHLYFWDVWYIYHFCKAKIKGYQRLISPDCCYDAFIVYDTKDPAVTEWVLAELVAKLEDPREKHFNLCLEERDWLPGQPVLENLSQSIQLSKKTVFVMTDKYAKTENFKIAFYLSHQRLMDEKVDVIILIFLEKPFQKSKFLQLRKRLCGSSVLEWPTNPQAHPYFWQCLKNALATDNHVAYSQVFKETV
experimentSummary: TLR7 inhibition reporter assay (HEK-Blue SEAP)
experimentalParameters: HEK-Blue cells overexpressing human TLR7, gardiquimod 7.5 μM, 22 hour incubation
pIC50: −log10 of the molar value.
metricName: pIC50

Cc1c(-c2cc3[nH]c(=O)n(C4CCC(N5CCCOCC5)CC4)c3cc2C(C)C)cn2ncnc2c1C (stereo not shown) [Example 271]; 8.22
COc1cc(-c2cc3[nH]c(=O)n(C4CCN(C5CCOC5)CC4)c3cc2C(C)C)cn2ncnc12 (stereo not shown) [Example 162]; 7.14
CCc1cc2c(cc1-c1cc(OC)c3ncnn3c1)[nH]c(=O)n2[C@@H]1CCCN(C(C)CC)C1 (stereo partly shown) [Example 176]; 8.47
Cc1cc2c(cc1-c1cc(C)c3ncnn3c1)[nH]c(=O)n2[C@H]1CCCN(C2COC2)C1 [Example 14]; 6.10
COc1cc(-c2cc3[nH]c(=O)n([C@@H]4CCCN(CC5CC5)C4)c3cc2C)cn2ncnc12 [Example 55]; 7.64
Cc1cc2c(cc1-c1cc(C)c3ncnn3c1)[nH]c(=O)n2[C@@H]1CCCN(Cc2ncn(C)n2)C1 [Example 35]; 6.14
Cc1c(-c2cc3[nH]c(=O)n([C@H]4CC[C@@H](NC5CCOCC5)CC4)c3cc2C(C)C)cn2ncnc2c1C [Example 187]; 8.39

====

Quick reference for pIC50 among some compounds
targetEntity: human TLR9 (Homo sapiens, UniProt Q9NR96)
Construct: host or cells: HEK-Blue cells
Sequence (Q9NR96 26-1032): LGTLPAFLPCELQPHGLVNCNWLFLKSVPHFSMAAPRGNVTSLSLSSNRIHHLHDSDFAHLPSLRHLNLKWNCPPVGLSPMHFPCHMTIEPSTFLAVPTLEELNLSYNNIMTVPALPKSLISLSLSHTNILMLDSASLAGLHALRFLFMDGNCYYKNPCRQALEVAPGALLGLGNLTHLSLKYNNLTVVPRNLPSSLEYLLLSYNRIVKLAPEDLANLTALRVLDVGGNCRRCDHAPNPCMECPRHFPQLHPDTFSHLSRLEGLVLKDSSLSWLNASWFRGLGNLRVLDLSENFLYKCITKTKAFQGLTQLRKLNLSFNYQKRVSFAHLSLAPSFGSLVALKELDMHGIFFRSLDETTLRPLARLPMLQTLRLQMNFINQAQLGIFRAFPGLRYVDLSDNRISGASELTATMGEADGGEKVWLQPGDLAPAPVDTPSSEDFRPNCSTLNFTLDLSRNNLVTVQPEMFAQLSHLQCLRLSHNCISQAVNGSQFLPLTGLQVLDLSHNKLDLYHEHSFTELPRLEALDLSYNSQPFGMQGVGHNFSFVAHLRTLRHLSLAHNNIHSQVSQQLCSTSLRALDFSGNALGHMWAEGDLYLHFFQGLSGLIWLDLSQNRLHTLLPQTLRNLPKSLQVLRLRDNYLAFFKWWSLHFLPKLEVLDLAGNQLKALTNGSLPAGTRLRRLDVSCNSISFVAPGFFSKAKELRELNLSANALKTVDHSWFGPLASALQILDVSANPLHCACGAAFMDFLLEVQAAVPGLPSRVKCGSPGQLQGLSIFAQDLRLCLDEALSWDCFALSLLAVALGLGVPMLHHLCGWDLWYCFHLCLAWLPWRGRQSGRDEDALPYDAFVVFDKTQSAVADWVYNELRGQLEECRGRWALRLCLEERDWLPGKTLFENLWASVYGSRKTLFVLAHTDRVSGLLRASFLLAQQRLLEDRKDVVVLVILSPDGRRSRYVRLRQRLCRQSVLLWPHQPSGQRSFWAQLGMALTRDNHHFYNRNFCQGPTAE
experimentSummary: TLR9 inhibition reporter assay (HEK-Blue SEAP)
Assay type: cell-based
experimentalParameters: HEK-Blue cells overexpressing human TLR9, ODN2006 5 nM, 22 hour incubation
pIC50: −log10 of the molar value.
metricName: pIC50

CCN1CCC[C@H](n2c(=O)[nH]c3cc(-c4cc(C)c5ncnn5c4)c(C)cc32)C1; 5.12
Cc1cc2c(cc1-c1cc(C)c3ncnn3c1)[nH]c(=O)n2C1CCN(CC(=O)N(C)C)CC1 [Example 89]; 4.54
COc1c(C)c(-c2cc3[nH]c(=O)n(C4CCC(N5CC(OC)C5)CC4)c3cc2C(C)C)cn2ncnc12 (stereo not drawn) [Example 265]; 4.72
COc1cc(-c2cc3[nH]c(=O)n([C@H]4CCCN(CCC(C)C)C4)c3cc2C(C)C)cn2ncnc12; 4.96
Cc1cc2c(cc1-c1cc(C)c3ncnn3c1)[nH]c(=O)n2[C@@H]1CCCN(CC(C)(C)C)C1; 5.17
CCC(CC)CN1CCC[C@@H](n2c(=O)[nH]c3cc(-c4cn5ncnc5c(C)c4C)c(C(C)C)cc32)C1; 4.75
COc1cc(-c2cc3[nH]c(=O)n(C4CCC(N5CCC6(CC5)COC6)CC4)c3cc2C(C)C)cn2ncnc12 (stereo not drawn) [Example 240]; 5.35
Cc1cc2c(cc1-c1cc(C)c3ncnn3c1)[nH]c(=O)n2[C@H]1CC[C@H](NC(C)C)CC1; 5.36
CCc1cc2c(cc1-c1cc(OC)c3ncnn3c1)[nH]c(=O)n2[C@H]1CC[C@@H](NC2CCOCC2)CC1; 4.83
COc1cc(-c2cc3[nH]c(=O)n(C4CCN(C)CC4)c3cc2C(C)C)cn2ncnc12; 4.63
COc1cc(-c2cc3[nH]c(=O)n([C@H]4CC[C@@H](N(C)C)CC4)c3cc2C)cn2ncnc12; 5.42
COc1cc(-c2cc3[nH]c(=O)n([C@H]4CCCN(CC5CCOC5)C4)c3cc2C(C)C)cn2ncnc12 (stereo partly drawn); 4.56
COc1cc(-c2cc3[nH]c(=O)n(C4CCN(C5CCC5)CC4)c3cc2C(C)C)cn2ncnc12; 4.62
COCCN1CCC[C@H](n2c(=O)[nH]c3cc(-c4cc(OC)c5ncnn5c4)c(C(C)C)cc32)C1; 4.69

====

targetEntity: human TLR9 (Homo sapiens)
experimentSummary: TLR9 inhibition reporter assay (HEK-Blue SEAP)
experimentalParameters: HEK-Blue cells overexpressing human TLR9, ODN2006 5 nM, 22 hour incubation
pIC50: −log10 of the molar value.
Catalogue of compounds with associated pIC50
metricName: pIC50

COc1cc(-c2cc3[nH]c(=O)n(C4CCC(N5CC(O)(C(F)(F)F)C5)CC4)c3cc2C(C)C)cn2ncnc12 (single isomer, unassigned) [Example 242]; 4.62
COc1cc(-c2cc3[nH]c(=O)n([C@@H]4CCCN(C(C)C)C4)c3cc2C)cn2ncnc12 [Example 53]; 5.43
COc1c(C)c(-c2cc3[nH]c(=O)n(C4CCC(N5CC(OC)C5)CC4)c3cc2C(C)C)cn2ncnc12 (stereo not shown) [Example 266]; 4.64
COc1cc(-c2cc3[nH]c(=O)n(C4CCC(N5CC[C@H](F)C5)CC4)c3cc2C(C)C)cn2ncnc12 (stereo partly shown) [Example 287]; 4.96

====

targetEntity: human TLR7 (Homo sapiens)
experimentSummary: TLR7 inhibition reporter assay (HEK-Blue SEAP)
experimentalParameters: HEK-Blue cells overexpressing human TLR7, gardiquimod 7.5 μM, 22 hour incubation
pIC50: −log10 of the molar value.
Assign 1 to entries whose pIC50 meets or exceeds 8; assign 0 to the rest.

COc1cc(-c2cc3[nH]c(=O)n([C@H]4CC[C@@H](NC(C)C)CC4)c3cc2C)cn2ncnc12 [Example 50]; 0
CCc1cc2c(cc1-c1cc(OC)c3ncnn3c1)[nH]c(=O)n2[C@@H]1CCCN(CC2CCC2)C1 [Example 181]; 1
COc1cc(-c2cc3[nH]c(=O)n(C4CCC(N(C)CCC(F)(F)F)CC4)c3cc2C(C)C)cn2ncnc12 (single isomer, unassigned) [Example 248]; 1
COCCN1CCC[C@@H](n2c(=O)[nH]c3cc(-c4cc(OC)c5ncnn5c4)c(C)cc32)C1 [Example 98]; 0
COc1cc(-c2cc3[nH]c(=O)n([C@@H]4CCCNC4)c3cc2C(F)(F)F)cn2ncnc12 [110 F]; 0
Cc1c(-c2cc3[nH]c(=O)n(C4CCC(N5CC(F)C5)CC4)c3cc2C(C)C)cn2ncnc2c1C (centres unmarked) [Example 280]; 1
COc1cc(-c2cc3[nH]c(=O)n(C4CCC(N5CCC6(CC5)COC6)CC4)c3cc2C(C)C)cn2ncnc12 (centres unmarked) [Example 239]; 1
COc1cc(-c2cc3[nH]c(=O)n([C@@H]4CCCN(CC(C)C)C4)c3cc2C)cn2ncnc12 [Example 56]; 1
COc1c(C)c(-c2cc3[nH]c(=O)n(C4CCC(NCC5(S(C)(=O)=O)CC5)CC4)c3cc2C(C)C)cn2ncnc12 (single isomer, unassigned) [Example 260]; 0
CCCN[C@H]1CC[C@@H](n2c(=O)[nH]c3cc(-c4cc(OC)c5ncnn5c4)c(C(C)C)cc32)CC1 [Example 195]; 1
